Recorded values, source the Human Domainome abundance scans (Beltran et al. 2025).

B1: Serine/threonine-protein kinase A-Raf, residues 21 to 89; numbered along this chain, P10398 (parent)
chain: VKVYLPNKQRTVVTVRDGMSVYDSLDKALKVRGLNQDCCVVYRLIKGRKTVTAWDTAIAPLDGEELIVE

variants of: B1; test: abundance fitness (aPCA) (normalised: wild type 0, dead -1); higher = more abundant; growth selection in yeast, the domain comes from the species named; conditions: Homo sapiens
// class assignment uses abundance fitness with these ranges: bottom (below -0.4), middle (-0.4 to below -0.09), top (-0.09 or more)

Dear colleague, I would appreciate it if you could identify the bin for D62N and reply at your convenience.
top

Dear colleague, I would appreciate it if you could identify the bin for L34R and reply at your convenience.
bottom

Dear colleague, I would appreciate it if you could identify the bin for W54N and reply at your convenience.
bottom

Dear colleague, I would appreciate it if you could identify the bin for R48P and reply at your convenience.
bottom

Dear colleague, I would appreciate it if you could identify the bin for K49P and reply at your convenience.
bottom

Dear colleague, I would appreciate it if you could identify the bin for C38R and reply at your convenience.
middle

Dear colleague, I would appreciate it if you could identify the bin for V3C and reply at your convenience.
middle

Dear colleague, I would appreciate it if you could identify the bin for G63M and reply at your convenience.
middle

Dear colleague, I would appreciate it if you could identify the bin for T50V and reply at your convenience.
top

Dear colleague, I would appreciate it if you could identify the bin for D55M and reply at your convenience.
bottom

Dear colleague, I would appreciate it if you could identify the bin for D23K and reply at your convenience.
middle

Dear colleague, I would appreciate it if you could identify the bin for A28Q and reply at your convenience.
bottom

Dear colleague, I would appreciate it if you could identify the bin for Q36E and reply at your convenience.
bottom

Dear colleague, I would appreciate it if you could identify the bin for V12F and reply at your convenience.
middle

Dear colleague, I would appreciate it if you could identify the bin for R16S and reply at your convenience.
top

Dear colleague, I would appreciate it if you could identify the bin for R10S and reply at your convenience.
top

Dear colleague, I would appreciate it if you could identify the bin for V3Y and reply at your convenience.
top

Dear colleague, I would appreciate it if you could identify the bin for Y4M and reply at your convenience.
top

Dear colleague, I would appreciate it if you could identify the bin for T11Y and reply at your convenience.
middle

Dear colleague, I would appreciate it if you could identify the bin for P60Q and reply at your convenience.
top

Dear colleague, I would appreciate it if you could identify the bin for A53W and reply at your convenience.
bottom

Dear colleague, I would appreciate it if you could identify the bin for I58Y and reply at your convenience.
top

Dear colleague, I would appreciate it if you could identify the bin for V40T and reply at your convenience.
middle

Dear colleague, I would appreciate it if you could identify the bin for L44G and reply at your convenience.
bottom

Dear colleague, I would appreciate it if you could identify the bin for C38Q and reply at your convenience.
top

Dear colleague, I would appreciate it if you could identify the bin for T11D and reply at your convenience.
middle

Dear colleague, I would appreciate it if you could identify the bin for A53G and reply at your convenience.
top

Dear colleague, I would appreciate it if you could identify the bin for L61D and reply at your convenience.
middle

Dear colleague, I would appreciate it if you could identify the bin for L44I and reply at your convenience.
top

Dear colleague, I would appreciate it if you could identify the bin for T11C and reply at your convenience.
top

Dear colleague, I would appreciate it if you could identify the bin for T11F and reply at your convenience.
top

Dear colleague, I would appreciate it if you could identify the bin for K8F and reply at your convenience.
middle

Dear colleague, I would appreciate it if you could identify the bin for S20M and reply at your convenience.
bottom

Dear colleague, I would appreciate it if you could identify the bin for L29P and reply at your convenience.
bottom

Dear colleague, I would appreciate it if you could identify the bin for Y42A and reply at your convenience.
bottom

Dear colleague, I would appreciate it if you could identify the bin for L25D and reply at your convenience.
bottom

Dear colleague, I would appreciate it if you could identify the bin for I45N and reply at your convenience.
bottom

Dear colleague, I would appreciate it if you could identify the bin for G47P and reply at your convenience.
bottom

Dear colleague, I would appreciate it if you could identify the bin for V3I and reply at your convenience.
middle

Dear colleague, I would appreciate it if you could identify the bin for L5V and reply at your convenience.
bottom

Dear colleague, I would appreciate it if you could identify the bin for R32F and reply at your convenience.
top

Dear colleague, I would appreciate it if you could identify the bin for Q9D and reply at your convenience.
top

Dear colleague, I would appreciate it if you could identify the bin for D55H and reply at your convenience.
middle
